Where these numbers come from: patent US6737383B1

# Test system: pigweed
# MEASUREMENT_PROTOCOL: Test B pre/postemergence pigweed
# Type: in vivo, Amaranthus retroflexus
# CONDITIONS_USED: Preemergence, Rate 62 g/ha; scale of 0 to 10 where 0 is no effect and 10 is complete control
MEASURED_ENDPOINT: Redroot pigweed plant response rating

CC(C)N(C(=O)n1oc(=O)n(C[Si](C)(C)C)c1=O)c1ccc(F)cc1; 0
CC(C)N(C(=O)n1oc(=O)n(C(C)C)c1=O)c1ccc(Br)cc1; 2
CC(C)N(C(=O)n1oc(=O)n(Cc2nnc(-c3ccccc3)o2)c1=O)c1ccccc1; 0
CC(C)N(C(=O)n1oc(=O)n(Cc2nnsc2Cl)c1=O)c1ccccc1; 0
CC(C)N(C(=O)n1oc(=O)n([C@@H](C)c2ccccc2)c1=O)c1ccc(Cl)cc1; 0
CC(C)N(C(=O)n1oc(=O)n(CC(=O)C(C)(C)C)c1=O)c1ccc(F)cc1; 0
CCOCn1c(=O)on(C(=O)N(c2ccc(F)cc2)C(C)C)c1=O; 3
CC(C)N(C(=O)n1oc(=O)n(-c2ccc(OC(F)(F)F)cc2)c1=O)c1ccc(F)cc1; 0
CCc1ccc(N(C(=O)n2oc(=O)n(-c3ccccc3C)c2=O)C(C)C)cc1; 0

---

# System: rape
# MEASUREMENT_PROTOCOL: Test B pre/postemergence rape
# Type: in vivo, Brassica napus
# CONDITIONS_USED: Preemergence, Rate 500 g/ha; scale of 0 to 10 where 0 is no effect and 10 is complete control
Each item that follows carries a reported Plant response rating, Rape.
MEASURED_ENDPOINT: Plant response rating, Rape

CC(C)N(C(=O)n1oc(=O)n(CCF)c1=O)c1ccc(F)cc1F; 10
CC(C)N(C(=O)n1oc(=O)n(CC2=NOCCC2)c1=O)c1ccc(F)cc1F; 3
CCCCn1c(=O)on(C(=O)N(c2ccc(F)cc2F)C(C)C)c1=O; 9
COC(=O)C(C)n1c(=O)on(C(=O)N(c2ccc(Cl)cc2)C(C)C)c1=O (stereo not shown); 2
CC(C)N(C(=O)n1oc(=O)n(-c2ccsc2)c1=O)c1ccc(F)cc1; 0
CC(C)N(C(=O)n1oc(=O)n(CC(Cl)Cl)c1=O)c1ccc(F)cc1F; 2
CC(C)N(C(=O)n1oc(=O)n(CC(=O)C(F)(F)F)c1=O)c1ccc(F)cc1F; 0
CC(C)N(C(=O)n1oc(=O)n(C2CC2)c1=O)c1ccc(F)cc1; 10
CC(C)N(C(=O)n1oc(=O)n([C@H](C)c2ccccc2)c1=O)c1ccc(F)cc1F; 10
CC(C)=CCCC(C)=CCn1c(=O)on(C(=O)N(c2ccc(F)cc2)C(C)C)c1=O; 0

---

# Tested on: blackgrass
# MEASUREMENT_PROTOCOL: Test B pre/postemergence blackgrass
# Format: in vivo, Alopecurus myosuroides
# CONDITIONS_USED: Rate 125 g/ha; Preemergence; scale of 0 to 10 where 0 is no effect and 10 is complete control
MEASURED_ENDPOINT: Blackgrass plant response rating

Cc1ccccc1N(C(=O)n1oc(=O)n(-c2ccccc2C)c1=O)C(C)C [Compound 236]; 2
CCCCCn1c(=O)on(C(=O)N(c2ccc(F)cc2)C(C)C)c1=O [Compound 290]; 2
CC(C)N(C(=O)n1oc(=O)n(C[Si](C)(C)C)c1=O)c1ccc(F)cc1 [Compound 294]; 3
CCCCc1ccc(N(C(=O)n2oc(=O)n(-c3ccccc3C)c2=O)C(C)C)cc1 [Compound 229]; 0
COCn1c(=O)on(C(=O)N(c2ccc(F)cc2)C(C)C)c1=O [Compound 293]; 7
CC(C)N(C(=O)n1oc(=O)n(-c2ccsc2)c1=O)c1ccc(F)cc1 [Compound 272]; 0
CC(C)=CCCC(C)=CCn1c(=O)on(C(=O)N(c2ccc(F)cc2)C(C)C)c1=O [Compound 262]; 0
COC(=O)Cn1c(=O)on(C(=O)N(c2ccc(F)cc2)C(C)C)c1=O [Compound 215]; 6
CC(=O)OCCCCn1c(=O)on(C(=O)N(c2ccc(F)cc2)C(C)C)c1=O [Compound 211]; 9
CCOCn1c(=O)on(C(=O)N(c2ccc(F)cc2)C(C)C)c1=O [Compound 295]; 10
